Provide the recorded Plant response rating, Redroot pigweed for the entries that follow.
System: pigweed
Assay: Test B pre/postemergence pigweed
Assay type: in vivo, Amaranthus retroflexus
Conditions: Postemergence, Rate 500 g/ha; scale 0 to 10, 0 is no effect, 10 is complete control
Answers are plain numbers.

Here are 3 molecules together with their reported answers.
# input Quick check: Plant response rating, Redroot pigweed of CCC(=O)Cn1c(=O)on(C(=O)N(c2ccc(Cl)cc2)C(C)C)c1=O [Compound 553] ?
# output 0

# input // returns reported Plant response rating, Redroot pigweed for input CCc1nc(C)c(Cn2c(=O)on(C(=O)N(c3ccc(Cl)cc3)C(C)C)c2=O)s1 [Compound 499]
# output 0

# input Report Plant response rating, Redroot pigweed for CC(C)N(C(=O)n1oc(=O)n(CCc2ccccc2)c1=O)c1ccc(F)cc1F [Compound 508] please.
# output 9

Let us move to another entry and its Plant response rating, Redroot pigweed.
# input For CCOC(=O)C=C(Cn1c(=O)on(C(=O)N(c2ccc(F)cc2F)C(C)C)c1=O)OCC [Compound 519] , what is its reported Plant response rating, Redroot pigweed?
# output 0

Reference source: patent US6737383B1
